# credit: patent US20250313631A1

# TARGET_OF_ASSAY: T1, human VISTA expressed on cells (human, UniProt Q9H7M9 33-311)
# T1 construct: also called HEK293 VISTA O/E; HEK293T or HEK293-6E cells overexpressing human VISTA
# ASSAY_NAME: flow cytometry, FITC anti-Fc detection; HEK293 VISTA O/E against HEK293
EXPERIMENTAL_READOUT: binding result

anti-VISTA clone 4M2-A8 IgG1 (antibody, V domains shown) VH: QVQLQQSGADLARPGASVKMSCKASGYTFIDYTVHWVKQRPGQGLEWIGFINPSNDYTSYNQKFKDKASLTADTSSTTAYMQLSSLTSDDSAVYYCARHSYGNYGDYWGQGTTLTVSS VL: DIVMTQAPKFLLVSAGDRVTITCKASQSVTNGVAWYQQKPGQSPKLLIYYASNRYTGVPDRFTGSGFGTDFTFTISTVQAEDLAVYFCQQDYSSPYTFGGGTKLEIKR	binds
anti-VISTA clone 4M2-C9 IgG1 (antibody, V domains shown) VH: QVTLKECGPGILQPSQTLSLTCSFSGFSLSTSGMGVSWIRQPSGKGLEWLAHIYWDDDKRYNPSLKSRLTISKDSSSNQVFLKITSVDTADTATYYCARRLDGYNDPYYFDYWGQGTTLTVSS VL: DIVMTQSPSSLSASLGDTVTITCHASQNVNVWLSWYQQKPGNIPKLLIYKASNLHAGVPSRFSGSGSGTGFTLTISSLQPEDIATYYCQQGQSYPLTFGGGTKLEIKR	binds
